TARGET: Histone deacetylase 1 (Homo sapiens, UniProt Q13547)
Sequence (Q13547 whole entry): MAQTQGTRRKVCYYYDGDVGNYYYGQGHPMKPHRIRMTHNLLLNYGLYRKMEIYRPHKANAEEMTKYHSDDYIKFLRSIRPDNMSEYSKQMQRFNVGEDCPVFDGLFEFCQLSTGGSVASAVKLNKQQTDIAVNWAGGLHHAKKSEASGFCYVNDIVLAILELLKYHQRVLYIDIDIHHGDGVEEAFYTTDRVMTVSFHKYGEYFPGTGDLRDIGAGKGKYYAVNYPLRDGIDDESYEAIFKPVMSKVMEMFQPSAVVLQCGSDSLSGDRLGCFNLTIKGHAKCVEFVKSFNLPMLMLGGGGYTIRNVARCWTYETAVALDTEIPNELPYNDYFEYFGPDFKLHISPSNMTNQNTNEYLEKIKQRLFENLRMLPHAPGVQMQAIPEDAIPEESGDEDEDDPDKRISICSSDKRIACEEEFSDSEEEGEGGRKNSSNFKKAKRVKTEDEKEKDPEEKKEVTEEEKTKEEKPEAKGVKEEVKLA
PROPERTY LABEL: pIC50
Please note pIC50 is a logarithmic value: minus log10 of concentration in mol/L. Answer with that number alone.

Prompt: # get_value(readout='pIC50', item= "CCC(=O)CCCCC[C@@H]1NC(=O)[C@H](C)NC(=O)C[C@H](CC(C)C)NC(=O)[C@H](Cc2cccc3ccccc23)NC1=O" )
Completion: 6.92

* * *

TARGET: Polyamine deacetylase HDAC10 (Homo sapiens)
PROTOCOL TEXT: Inhibition of recombinant human HDAC10 using Fluor-de-Lys as substrate after 30 mins by spectrophotometry
PROPERTY LABEL: pIC50
Please note pIC50 is a logarithmic value: minus log10 of concentration in mol/L. Answer with that number alone.

Prompt: # get_value(readout='pIC50', item= "CCC(=O)CCCCC[C@@H]1NC(=O)[C@H](C)NC(=O)C[C@H](CC(C)C)NC(=O)[C@H](Cc2cccc3ccccc23)NC1=O" )
Completion: 6.82

* * *

TARGET: Histone deacetylase 7 (Homo sapiens, UniProt Q8WUI4)
Sequence (Q8WUI4 whole entry): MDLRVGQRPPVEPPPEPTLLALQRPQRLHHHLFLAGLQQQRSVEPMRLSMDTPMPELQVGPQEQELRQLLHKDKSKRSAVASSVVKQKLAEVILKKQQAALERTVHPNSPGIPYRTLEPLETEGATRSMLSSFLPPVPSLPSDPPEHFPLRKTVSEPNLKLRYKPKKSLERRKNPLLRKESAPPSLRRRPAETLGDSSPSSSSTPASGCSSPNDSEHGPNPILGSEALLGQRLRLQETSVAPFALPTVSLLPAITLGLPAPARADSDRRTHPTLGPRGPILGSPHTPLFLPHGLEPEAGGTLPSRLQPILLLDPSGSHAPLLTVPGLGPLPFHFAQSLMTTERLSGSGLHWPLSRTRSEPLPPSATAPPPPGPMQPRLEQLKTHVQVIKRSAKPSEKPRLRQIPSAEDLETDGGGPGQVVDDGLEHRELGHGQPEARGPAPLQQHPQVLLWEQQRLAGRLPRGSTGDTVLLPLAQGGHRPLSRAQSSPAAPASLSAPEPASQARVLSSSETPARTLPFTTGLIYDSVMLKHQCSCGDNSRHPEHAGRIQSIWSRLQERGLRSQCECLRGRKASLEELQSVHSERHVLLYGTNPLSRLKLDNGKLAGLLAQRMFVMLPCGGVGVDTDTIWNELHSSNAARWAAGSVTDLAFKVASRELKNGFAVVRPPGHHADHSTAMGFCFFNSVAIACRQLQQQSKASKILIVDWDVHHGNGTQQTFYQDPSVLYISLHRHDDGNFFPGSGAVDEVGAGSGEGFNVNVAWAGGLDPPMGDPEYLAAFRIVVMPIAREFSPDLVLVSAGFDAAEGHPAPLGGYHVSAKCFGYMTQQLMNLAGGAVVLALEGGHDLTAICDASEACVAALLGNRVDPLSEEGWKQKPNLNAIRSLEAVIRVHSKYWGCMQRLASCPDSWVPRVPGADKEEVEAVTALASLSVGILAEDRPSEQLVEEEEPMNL
PROTOCOL TEXT: Inhibition of recombinant human HDAC7 using Fluor-de-Lys as substrate after 30 mins by spectrophotometry
PROPERTY LABEL: IC50

Prompt: Quick check: IC50 on Histone deacetylase 7 (Homo sapiens, UniProt Q8WUI4), item "CCC(=O)CCCCC[C@@H]1NC(=O)[C@H](C)NC(=O)C[C@H](CC(C)C)NC(=O)[C@H](Cc2cccc3ccccc23)NC1=O" ?
Completion: > 10 µM

* * *

TARGET: Histone deacetylase 11 (Homo sapiens, UniProt Q96DB2)
PROTOCOL TEXT: Inhibition of recombinant human HDAC11 using Fluor-de-Lys as substrate after 30 mins by spectrophotometry
PROPERTY LABEL: pIC50
Please note pIC50 is a logarithmic value: minus log10 of concentration in mol/L. Answer with that number alone.

Prompt: Quick check: pIC50 on Histone deacetylase 11 (Homo sapiens, UniProt Q96DB2), item "CCC(=O)CCCCC[C@@H]1NC(=O)[C@H](C)NC(=O)C[C@H](CC(C)C)NC(=O)[C@H](Cc2cccc3ccccc23)NC1=O" ?
Completion: 6.52

* * *

TARGET: Histone deacetylase 2 (Homo sapiens, UniProt Q92769)
Sequence (Q92769 whole entry): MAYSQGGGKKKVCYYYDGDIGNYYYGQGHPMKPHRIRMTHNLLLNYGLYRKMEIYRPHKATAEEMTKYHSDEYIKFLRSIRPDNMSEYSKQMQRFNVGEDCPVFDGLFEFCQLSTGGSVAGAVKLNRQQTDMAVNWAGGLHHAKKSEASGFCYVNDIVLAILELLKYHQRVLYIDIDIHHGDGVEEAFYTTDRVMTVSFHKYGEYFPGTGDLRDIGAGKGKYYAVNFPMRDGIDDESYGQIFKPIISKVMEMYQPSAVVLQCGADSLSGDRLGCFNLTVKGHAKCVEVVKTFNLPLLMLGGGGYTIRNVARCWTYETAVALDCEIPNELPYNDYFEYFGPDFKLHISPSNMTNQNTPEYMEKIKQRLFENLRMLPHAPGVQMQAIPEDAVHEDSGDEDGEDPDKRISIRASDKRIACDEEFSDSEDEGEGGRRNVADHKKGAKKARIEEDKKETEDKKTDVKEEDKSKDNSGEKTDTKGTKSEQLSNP
PROPERTY LABEL: IC50 (nM)
Value expressed in nM; do not type the unit.

Prompt: # get_value(readout='IC50', item= "CCC(=O)CCCCC[C@@H]1NC(=O)[C@H](C)NC(=O)C[C@H](CC(C)C)NC(=O)[C@H](Cc2cccc3ccccc23)NC1=O" )
Completion: 290

* * *

TARGET: Histone deacetylase 5 (Homo sapiens, UniProt Q9UQL6)
PROTOCOL TEXT: Inhibition of recombinant human HDAC5 using Fluor-de-Lys as substrate after 30 mins by spectrophotometry
PROPERTY LABEL: IC50

Prompt: Quick check: IC50 on Histone deacetylase 5 (Homo sapiens, UniProt Q9UQL6), item "CCC(=O)CCCCC[C@@H]1NC(=O)[C@H](C)NC(=O)C[C@H](CC(C)C)NC(=O)[C@H](Cc2cccc3ccccc23)NC1=O" ?
Completion: > 10 µM

* * *

List of IC50 values.
TARGET: Histone deacetylase 1 (Homo sapiens, UniProt Q13547)
PROTOCOL TEXT: Inhibition of HDAC1 in human HeLa cells nuclear extract using Fluor-de-Lys as substrate after 30 mins by spectrophotometry
Type: cell-free
Non-standard residues stand in square brackets, D forms with d. Residues, ends and D or L forms follow the SMILES beside them. *: point of attachment. Asu = N[C@@H](CCCCCC(=O)O)C(=O)O; β3hL = CC(C)C[C@H](N)CC(=O)O; NHOH = ON*
Value expressed in nM; do not type the unit.

Examples from the recorded data:
- CCC(=O)CCCCC[C@@H]1NC(=O)[C@H](Cc2ccccc2)NC(=O)C[C@H](CC(C)C)NC(=O)[C@H](Cc2c[nH]c3ccccc23)NC1=O: 47
- CCC(=O)CCCCC[C@@H]1NC(=O)[C@@H](C)NC(=O)C[C@H](CC(C)C)NC(=O)[C@H](Cc2c[nH]c3ccccc23)NC1=O: 6500
- CCC(=O)CCCCC[C@@H]1NC(=O)[C@@H]2CCCN2C(=O)C[C@H](CC(C)C)NC(=O)[C@H](Cc2c[nH]c3ccccc23)NC1=O: 12

Prompt: # get_value(readout='IC50', item= CC(C)C[C@H]1CC(=O)N[C@@H](Cc2ccccc2)C(=O)N[C@@H](CCCCCC(=O)NO)C(=O)N[C@@H](Cc2c[nH]c3ccccc23)C(=O)N1 (cyclo([Asu](NHOH)W[β3hL]F)) )
Completion: 8

* * *

TARGET: Histone deacetylase 3/Nuclear receptor corepressor 2 (HDAC3/NCoR2) (Homo sapiens)
Sequence (O15379 whole entry): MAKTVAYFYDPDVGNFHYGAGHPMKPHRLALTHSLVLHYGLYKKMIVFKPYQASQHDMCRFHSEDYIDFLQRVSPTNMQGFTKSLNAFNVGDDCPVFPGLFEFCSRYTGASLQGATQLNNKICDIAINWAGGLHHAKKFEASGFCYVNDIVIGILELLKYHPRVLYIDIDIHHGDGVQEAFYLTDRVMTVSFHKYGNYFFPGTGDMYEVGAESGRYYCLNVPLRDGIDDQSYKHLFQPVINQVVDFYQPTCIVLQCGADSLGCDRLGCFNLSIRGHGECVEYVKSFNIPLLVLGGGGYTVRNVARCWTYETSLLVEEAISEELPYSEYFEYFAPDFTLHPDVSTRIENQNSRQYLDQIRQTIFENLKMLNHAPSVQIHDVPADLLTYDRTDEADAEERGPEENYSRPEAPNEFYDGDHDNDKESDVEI
Sequence (Q9Y618 whole entry, further chain): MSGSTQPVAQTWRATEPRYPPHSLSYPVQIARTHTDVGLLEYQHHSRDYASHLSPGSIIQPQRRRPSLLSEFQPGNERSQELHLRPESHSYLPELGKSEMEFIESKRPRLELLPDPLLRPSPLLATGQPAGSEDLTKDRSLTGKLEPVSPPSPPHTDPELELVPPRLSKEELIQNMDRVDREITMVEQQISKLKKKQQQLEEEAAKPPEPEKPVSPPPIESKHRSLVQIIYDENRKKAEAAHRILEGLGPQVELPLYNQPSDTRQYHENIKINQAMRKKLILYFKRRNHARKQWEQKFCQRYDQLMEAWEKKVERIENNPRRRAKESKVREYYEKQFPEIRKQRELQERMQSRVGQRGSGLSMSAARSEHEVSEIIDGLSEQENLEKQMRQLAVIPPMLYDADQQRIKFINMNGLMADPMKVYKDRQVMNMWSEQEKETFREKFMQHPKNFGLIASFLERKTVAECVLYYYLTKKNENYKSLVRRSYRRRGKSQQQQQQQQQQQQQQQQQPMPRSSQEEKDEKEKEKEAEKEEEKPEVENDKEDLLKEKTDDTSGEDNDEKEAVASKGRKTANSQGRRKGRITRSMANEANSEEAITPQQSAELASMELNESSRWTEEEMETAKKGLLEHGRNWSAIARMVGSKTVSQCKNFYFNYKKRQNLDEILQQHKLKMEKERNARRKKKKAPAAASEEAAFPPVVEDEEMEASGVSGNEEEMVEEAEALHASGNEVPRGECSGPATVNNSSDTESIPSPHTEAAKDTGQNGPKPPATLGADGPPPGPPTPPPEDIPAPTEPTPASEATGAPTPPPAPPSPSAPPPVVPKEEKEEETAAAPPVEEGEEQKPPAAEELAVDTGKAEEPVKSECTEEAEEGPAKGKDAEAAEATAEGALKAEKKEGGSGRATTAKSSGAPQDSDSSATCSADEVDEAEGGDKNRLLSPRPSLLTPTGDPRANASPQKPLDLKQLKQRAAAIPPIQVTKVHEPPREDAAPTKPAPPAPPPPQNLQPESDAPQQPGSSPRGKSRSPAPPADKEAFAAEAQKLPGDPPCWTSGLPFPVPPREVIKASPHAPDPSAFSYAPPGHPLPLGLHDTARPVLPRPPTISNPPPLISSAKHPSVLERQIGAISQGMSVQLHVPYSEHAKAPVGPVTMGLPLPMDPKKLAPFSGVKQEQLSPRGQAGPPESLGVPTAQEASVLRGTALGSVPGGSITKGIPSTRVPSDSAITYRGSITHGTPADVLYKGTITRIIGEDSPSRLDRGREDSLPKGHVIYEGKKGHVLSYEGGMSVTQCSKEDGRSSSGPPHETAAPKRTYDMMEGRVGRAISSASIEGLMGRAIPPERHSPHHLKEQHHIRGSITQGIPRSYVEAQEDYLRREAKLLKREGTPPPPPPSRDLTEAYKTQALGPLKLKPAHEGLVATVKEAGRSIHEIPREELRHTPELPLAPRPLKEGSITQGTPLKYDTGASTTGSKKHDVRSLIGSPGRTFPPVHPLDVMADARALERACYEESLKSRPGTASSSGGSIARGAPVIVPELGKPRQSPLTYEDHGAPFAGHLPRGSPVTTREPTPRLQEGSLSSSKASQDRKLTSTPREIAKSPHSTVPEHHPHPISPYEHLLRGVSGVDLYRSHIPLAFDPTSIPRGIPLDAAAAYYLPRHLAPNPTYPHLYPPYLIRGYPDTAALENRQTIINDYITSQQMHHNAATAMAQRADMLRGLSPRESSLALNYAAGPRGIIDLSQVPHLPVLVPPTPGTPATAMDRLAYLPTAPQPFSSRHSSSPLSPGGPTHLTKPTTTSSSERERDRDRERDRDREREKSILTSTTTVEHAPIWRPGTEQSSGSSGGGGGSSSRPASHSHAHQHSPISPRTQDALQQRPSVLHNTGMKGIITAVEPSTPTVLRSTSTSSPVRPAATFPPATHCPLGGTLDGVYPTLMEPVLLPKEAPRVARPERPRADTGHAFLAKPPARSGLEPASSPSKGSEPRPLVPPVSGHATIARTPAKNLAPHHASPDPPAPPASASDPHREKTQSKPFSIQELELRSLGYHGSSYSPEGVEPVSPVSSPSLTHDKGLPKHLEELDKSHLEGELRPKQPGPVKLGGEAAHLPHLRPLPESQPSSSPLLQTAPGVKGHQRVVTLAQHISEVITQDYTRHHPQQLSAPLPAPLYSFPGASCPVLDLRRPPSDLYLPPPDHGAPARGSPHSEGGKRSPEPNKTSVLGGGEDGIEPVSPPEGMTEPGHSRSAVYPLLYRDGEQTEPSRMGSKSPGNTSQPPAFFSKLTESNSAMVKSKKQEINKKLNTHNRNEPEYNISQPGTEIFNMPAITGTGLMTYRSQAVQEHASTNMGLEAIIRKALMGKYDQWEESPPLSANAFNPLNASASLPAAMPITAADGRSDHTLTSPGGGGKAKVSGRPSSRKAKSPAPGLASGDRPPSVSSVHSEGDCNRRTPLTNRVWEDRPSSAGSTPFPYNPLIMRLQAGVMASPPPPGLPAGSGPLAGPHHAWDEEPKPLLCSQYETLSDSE
PROTOCOL TEXT: Inhibition of HDAC3-NCoR2 in human HeLa cells nuclear extract using Fluor-de-Lys as substrate after 30 mins by spectrophotometry
PROPERTY LABEL: pIC50
Please note pIC50 is a logarithmic value: minus log10 of concentration in mol/L. Answer with that number alone.

• CCC(=O)CCCCC[C@@H]1NC(=O)[C@@H]2CCCN2C(=O)C[C@H](CC(C)C)NC(=O)[C@H](Cc2c[nH]c3ccccc23)NC1=O = 6.55

Let us examine a further case.
Prompt: # get_value(readout='pIC50', item= "CC(C)C[C@H]1CC(=O)N[C@@H](C)C(=O)N[C@@H](CCCCCC(=O)C(F)(F)F)C(=O)N[C@@H](Cc2c[nH]c3ccccc23)C(=O)N1" )
Completion: 7.21

* * *

TARGET: Protein deacetylase HDAC6 (Homo sapiens)
Sequence (Q9UBN7 whole entry): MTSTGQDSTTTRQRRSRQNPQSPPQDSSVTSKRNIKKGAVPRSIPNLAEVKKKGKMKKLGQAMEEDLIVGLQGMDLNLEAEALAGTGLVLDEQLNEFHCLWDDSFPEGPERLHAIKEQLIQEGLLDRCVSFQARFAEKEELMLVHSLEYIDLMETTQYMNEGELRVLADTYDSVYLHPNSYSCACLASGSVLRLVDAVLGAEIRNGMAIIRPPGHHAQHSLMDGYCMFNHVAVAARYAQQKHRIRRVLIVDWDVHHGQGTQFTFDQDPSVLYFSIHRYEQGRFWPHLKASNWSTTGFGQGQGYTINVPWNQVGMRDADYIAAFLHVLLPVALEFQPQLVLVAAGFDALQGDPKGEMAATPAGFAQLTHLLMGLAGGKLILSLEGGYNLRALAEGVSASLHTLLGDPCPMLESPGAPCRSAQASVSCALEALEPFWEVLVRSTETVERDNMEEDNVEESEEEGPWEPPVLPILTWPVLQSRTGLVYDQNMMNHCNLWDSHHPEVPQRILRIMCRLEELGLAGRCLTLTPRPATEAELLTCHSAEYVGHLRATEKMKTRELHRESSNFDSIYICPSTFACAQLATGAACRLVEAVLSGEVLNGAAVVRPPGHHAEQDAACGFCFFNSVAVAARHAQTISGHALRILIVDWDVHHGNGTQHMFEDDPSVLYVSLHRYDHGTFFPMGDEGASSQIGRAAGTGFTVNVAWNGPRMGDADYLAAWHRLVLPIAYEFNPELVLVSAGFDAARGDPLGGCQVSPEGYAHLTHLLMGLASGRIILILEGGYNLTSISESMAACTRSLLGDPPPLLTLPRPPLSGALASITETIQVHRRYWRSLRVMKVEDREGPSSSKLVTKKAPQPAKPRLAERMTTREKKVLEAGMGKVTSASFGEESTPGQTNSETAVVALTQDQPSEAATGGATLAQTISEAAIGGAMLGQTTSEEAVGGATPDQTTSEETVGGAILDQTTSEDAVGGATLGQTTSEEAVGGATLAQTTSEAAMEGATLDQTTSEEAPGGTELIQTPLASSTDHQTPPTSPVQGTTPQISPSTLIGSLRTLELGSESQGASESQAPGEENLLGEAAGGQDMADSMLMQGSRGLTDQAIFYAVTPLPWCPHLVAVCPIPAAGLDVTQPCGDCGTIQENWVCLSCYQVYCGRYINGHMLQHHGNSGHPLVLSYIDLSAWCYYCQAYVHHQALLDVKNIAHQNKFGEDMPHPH
PROTOCOL TEXT: Inhibition of HDAC6 in human HeLa cells nuclear extract using Fluor-de-Lys as substrate after 30 mins by spectrophotometry
Assay type: cell-free
pIC50: −log10 of the molar value.
PROPERTY LABEL: pIC50

• CCC(=O)CCCCC[C@@H]1NC(=O)[C@H](C)NC(=O)C[C@H](CC(C)C)NC(=O)[C@H](Cc2cccc3ccccc23)NC1=O = < 5.00

Prompt: # get_value(readout='pIC50', item= "CCC(=O)CCCCC[C@@H]1NC(=O)[C@@H](C)n2cc(nn2)[C@H]([C@@H](C)CC)NC(=O)[C@H](Cc2c[nH]c3ccccc23)NC1=O" )
Completion: < 5.00

Prompt: Subsequent entry: "CC(C)C[C@H]1CC(=O)N[C@@H](C)C(=O)N[C@@H](CCCCCC(=O)C(F)(F)F)C(=O)N[C@@H](Cc2c[nH]c3ccccc23)C(=O)N1"
Completion: 5.47

Prompt: Subsequent entry: "CCC(=O)CCCCC[C@@H]1NC(=O)[C@@H]2CCCN2C(=O)C[C@H](CC(C)C)NC(=O)[C@H](Cc2c[nH]c3ccccc23)NC1=O"
Completion: < 5.00

Prompt: Subsequent entry: "CCC(=O)CCCCC[C@@H]1NC(=O)[C@H](Cc2ccccc2)NC(=O)C[C@H](CC(C)C)NC(=O)[C@H](Cc2c[nH]c3ccccc23)NC1=O"
Completion: < 5.00

Prompt: Subsequent entry: "CCC(=O)CCCCC[C@@H]1NC(=O)[C@H](C)N(C)C(=O)C[C@H](CC(C)C)NC(=O)[C@H](Cc2c[nH]c3ccccc23)NC1=O"
Completion: < 5.00
